Measured pIC50 values are reported for all entries that follow.
- Measurement target: Recombinant human cathepsin A (Homo sapiens, UniProt P10619)
- Construct: Recombinant human cathepsin A (residues 29-480, with a C-terminal 10-His tag); 10-His (C); purchased R&D Systems 1049-SE
- Sequence (P10619 29-312 limits assumed): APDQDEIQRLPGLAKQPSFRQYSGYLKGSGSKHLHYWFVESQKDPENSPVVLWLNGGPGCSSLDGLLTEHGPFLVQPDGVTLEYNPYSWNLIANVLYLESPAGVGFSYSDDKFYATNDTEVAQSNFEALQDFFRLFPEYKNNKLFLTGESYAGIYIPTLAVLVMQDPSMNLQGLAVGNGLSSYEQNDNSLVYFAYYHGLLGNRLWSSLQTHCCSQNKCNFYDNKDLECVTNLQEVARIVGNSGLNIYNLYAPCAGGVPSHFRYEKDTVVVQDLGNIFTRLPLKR
- Sequence (P10619 327-480 limits assumed): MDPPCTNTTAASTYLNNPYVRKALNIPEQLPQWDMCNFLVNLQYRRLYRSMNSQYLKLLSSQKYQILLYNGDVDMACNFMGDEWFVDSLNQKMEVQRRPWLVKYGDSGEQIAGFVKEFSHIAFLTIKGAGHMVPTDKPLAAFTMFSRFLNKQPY
- Method: Cathepsin A inhibitory activity
- Type: biochemical
- Condition context: pharmacological test "Cathepsin A inhibitory activity"; IC50 given as class A/B/C; read-out: Activity (2): Cathepsin A inhibitory activity, IC50 class
pIC50: −log10 of the molar value.
Observation type: pIC50

O=C(O)C[C@H](NC(=O)c1cc(O)n(-c2ccccc2)n1)c1ccccc1Br	6.00 to 7.00
N#Cc1cccc([C@H](CC(=O)O)NC(=O)c2cc(O)n(-c3ccccc3F)n2)c1	6.00 to 7.00
O=C(O)C[C@H](NC(=O)c1cc(O)n(-c2ccccc2Cl)n1)c1cccc(Cl)c1Cl	> 7.00
COc1ccc([C@H](CC(=O)O)NC(=O)c2cc(O)n(-c3ccccc3Cl)n2)cn1	6.00 to 7.00
COc1ccccc1[C@@H](NC(=O)c1cc(O)n(-c2ccccc2)n1)[C@@H](O)C(=O)O	4.52 to 6.00
O=C(O)C[C@H](NC(=O)c1cc(O)n(-c2ccccc2)n1)c1cccc(F)c1	4.52 to 6.00
COc1ccc(C(CC(=O)O)NC(=O)c2cc(O)n(-c3ccccc3Cl)n2)c(OC)c1 (stereo not shown)	6.00 to 7.00
COc1ccc(C(CC(=O)O)NC(=O)c2cc(O)n(-c3ccccc3F)n2)c(OC)c1 (stereo not shown)	6.00 to 7.00
O=C(O)CC(NC(=O)c1cc(O)n(-c2cccc(Cl)c2)n1)c1cccc(Cl)c1Cl (stereo not shown)	6.00 to 7.00
O=C(O)C[C@@H](NC(=O)c1cc(O)n(-c2ccccc2Cl)n1)c1ccc(-c2ccc(F)cc2)cc1	> 7.00
O=C(O)CC(NC(=O)c1cc(O)n(-c2ccc(F)cc2F)n1)c1cccc(Cl)c1F (stereo not shown)	6.00 to 7.00
Cc1cccc([C@H](CC(=O)O)NC(=O)c2cc(O)n(-c3ccccc3Cl)n2)c1	6.00 to 7.00
Cc1cc(F)ccc1C(CC(=O)O)NC(=O)c1cc(O)n(-c2ccccc2Cl)n1 (stereo not shown)	6.00 to 7.00
O=C(O)CC(NC(=O)c1cc(O)n(-c2ccccc2F)n1)c1cccc(Oc2ccc(Cl)cc2)c1 (stereo not shown)	6.00 to 7.00
Cc1ccc(C(CC(=O)O)NC(=O)c2cc(O)n(-c3ccc(F)cc3F)n2)c(C)c1 (stereo not shown)	6.00 to 7.00
Cc1ccccc1[C@H](CC(=O)O)NC(=O)c1cc(O)n(-c2nccc(C(F)(F)F)n2)n1	4.52 to 6.00
